Provide the reported reversed-phase LC retention time of each item.
METHOD NOTES: reversed-phase LC retention time (C18, 15 min MeOH gradient); higher = more hydrophobic / later elution
SETUP CONDITIONS: ionization mode: ESI+; ion species: [M+H]+
Note: unit min is implicit; provide only the numeric part.

reversed-phase LC retention time reading for C[C@@H]1C[C@H]2[C@@H]3CCC4=CC(=O)C=C[C@]4(C)[C@@]3(Cl)[C@@H](O)C[C@]2(C)[C@@]1(OC(=O)c1ccco1)C(=O)CCl [Mometasone fuorate] : 15.2

C[C@@H](CCC(=O)O)C1CCC2C3C(=O)CC4C[C@H](O)CC[C@]4(C)C3CC[C@@]21C (stereo partly drawn) yielded reversed-phase LC retention time of 15.8

Form: compound = CCCCCCOc1ccc(-c2nc(-c3ccccc3)nc(-c3ccccc3)n2)c(O)c1 ; reversed-phase LC retention time = 21.2

----------
METHOD NOTES: reversed-phase LC retention time (C18, 15 min MeOH gradient); higher = more hydrophobic / later elution
SETUP CONDITIONS: ionization mode: ESI-; ion species: [M-H]-
Assignment: determine reported reversed-phase LC retention time for the given compounds.
Expressed in min, but write only the number.

// reversed-phase LC retention time lookup, compound = C[C@]12CCC(=O)C=C1CC[C@@H]1[C@@H]2[C@@H](O)C[C@]2(C=O)[C@@H](C(=O)CO)CC[C@@H]12 , result: 11.9

Form field reversed-phase LC retention time, entry CC(C)N1C(=O)c2cc(O)ccc2NS1(=O)=O [6-Hydroxybentazone] : 5.24

Summary for this compound, O=S(=O)(O)c1nc2ccccc2s1 : reversed-phase LC retention time is 7.26

The compound listed as N#Cc1ccc(C/C(=N\NC(=O)Nc2ccc(OC(F)(F)F)cc2)c2cccc(C(F)(F)F)c2)cc1 has a reported reversed-phase LC retention time of 17.3

The recorded reversed-phase LC retention time for CC1(C(=O)Nc2ccc(O)c(Cl)c2Cl)CCCCC1 is 14.6

Sure, the documented reversed-phase LC retention time for O=c1[nH]nc(C(F)(F)F)s1 is 6.79

Recorded result, O=c1c(-c2ccc(O)cc2)coc2cc(O)ccc12 , reversed-phase LC retention time: 9.78

Lab note: measured reversed-phase LC retention time of CC1(C)[C@@H](O)CC[C@]2(C)[C@H]3C(=O)C=C4[C@@H]5C[C@@](C)(C(=O)O)CC[C@]5(C)CC[C@@]4(C)[C@]3(C)CC[C@@H]12 was 16.6

----------
METHOD NOTES: collision cross section (TIMS, N2 drift gas) of the primary ion; higher = larger gas-phase ion size
SETUP CONDITIONS: ionization mode: ESI+; ion species: [M+H]+
Can you tell me collision cross section for the items I'm about to list?
Give the number; Å² is assumed, so skip it.

For reference, reported collision cross section for O=S(=O)(c1ccc(O)cc1)c1ccc(O)cc1 stands at 155.2

So, O=P(O)(Oc1ccccc1)Oc1ccccc1 [Diphenylphosphate] ? Its collision cross section was 155.07

Just so you know, measured collision cross section for CC1(C)CCC(Cc2ccc(Cl)cc2)C1(O)Cn1cncn1 (stereo not drawn) came out at 170.17

Item: O=C1Cc2cc(CCN3CCN(c4nsc5ccccc45)CC3)c(Cl)cc2N1 | collision cross section: 192.95

molecule C[C@H]1C[C@@H]2[C@H]([C@@H](O)C[C@@]3(C)[C@H]2CC[C@]3(O)C(=O)CO)[C@@]2(C)C=CC(=O)C=C12 , collision cross section observed: 190.78

Field collision cross section (entry CCN(CC)c1ccc2c(C)cc(=O)oc2c1 ) reads 152.41

Field collision cross section (entry O=C(O)c1cn(C2CC2)c2cc(N3CCNCC3)c(F)cc2c1=O ) reads 175.82

For this molecule ( NC(=O)c1c(Cl)cccc1Cl [2,6-Dichlorobenzamide] ), measured collision cross section is 133.04

----------
METHOD NOTES: collision cross section (TIMS, N2 drift gas) of the primary ion; higher = larger gas-phase ion size
SETUP CONDITIONS: ionization mode: ESI-; ion species: [M-H]-
Give collision cross section for every item shown.
State just the number; it will be interpreted in Å².

collision cross section in this record for COc1ccc(-c2coc3cc(O)cc(O)c3c2=O)cc1 [Biochanin A] : 166.25

According to the records, this molecule CC(C)CC(C)CC(C)c1ccc(O)cc1 (stereo not drawn) [Nonylphenol_isomers] displays collision cross section of 161.38

molecule O=P(O)(OCCC(F)(F)C(F)(F)C(F)(F)C(F)(F)C(F)(F)C(F)(F)F)OCCC(F)(F)C(F)(F)C(F)(F)C(F)(F)C(F)(F)C(F)(F)F [6:2 Fluorotelomer phosphate diester] , collision cross section observed: 232.73

The molecule listed as COc1cc2ccc(=O)oc2c(O)c1OC [Fraxidin] shows collision cross section equal to 145.19

# collision cross section of Oc1c(Cl)cc(-c2ccc(Cl)cc2)cc1Cl [4-Hydroxy-3,4',5-trichlorobiphenyl] = 154.17

Notebook: O=C(NC1CCCCC1)NC1CCCCC1 [Dicyclohexylurea] , collision cross section read as 163.68

Short answer for N#Cc1nn(-c2c(Cl)cc(C(F)(F)F)cc2Cl)c(N)c1C(F)(F)F [Fipronil desulfinyl] : collision cross section was 168.16

// field: collision cross section; key: CCCCCCCCOc1ccc(C(=O)c2ccccc2)c(O)c1 [2-Hydroxy-4-(octyloxyl)benzophenone] ; value = 193.31

The molecule listed as O=S(=O)(O)C(F)(F)C(F)(F)C(F)(F)C(F)(F)C(F)(F)F [Perfluoropentanesulfonic acid] has a reported collision cross section of 141.48

// field: collision cross section; key: O=C(O)C(F)(F)C(F)(F)C(F)(F)C(F)(F)C(F)(F)C(F)(F)C(F)(F)C(F)(F)C(F)(F)F [Perfluorodecanoic acid] ; value = 173.66

collision cross section for O=C(O)C(F)(F)C(F)(F)C(F)(F)C(F)(F)C(F)(F)C(F)(F)C(F)(F)C(F)(F)C(F)(F)C(F)(F)C(F)(F)F [Perfluorododecanoic acid] is 191.62

Data point: CC12CC1(C)C(=O)N(c1cc(Cl)cc(Cl)c1)C2=O (stereo unspecified) [Procymidone] ; collision cross section = 172.16

In plain terms, O=C(c1ccccc1)c1ccc(O)cc1 [4-Hydroxybenzophenone] has a documented collision cross section of 144.47

The recorded collision cross section for C[C@H]1c2cccc(O)c2C(=O)C2=C(O)[C@]3(O)C(=O)C(C(N)=O)=C(O)[C@@H](N(C)C)[C@@H]3[C@@H](O)[C@@H]21 [Doxycycline] is 197.93

Memo: CC(=O)CC(c1ccccc1)c1c(O)c2ccccc2oc1=O (stereo unspecified) [Warfarin] , reported collision cross section: 171.91

CCC(C)(c1ccc(O)cc1)c1ccc(O)cc1 [Bisphenol B] has a reported collision cross section of 165.01

----------
METHOD NOTES: collision cross section (TIMS, N2 drift gas) of the primary ion; higher = larger gas-phase ion size
SETUP CONDITIONS: ionization mode: ESI+; ion species: [M+H]+
Kindly state collision cross section for each of the entries shown.
Enter your answer as a number in Å²; do not include the unit.

For this compound ( COCCCCC(=NOCCN)c1ccc(C(F)(F)F)cc1 [Fluvoxamine] ), measured collision cross section is 178.07

So, O=c1c(-c2ccc(O)cc2)coc2cc(O)ccc12 [Daidzein] ? Its collision cross section was 155.18

collision cross section in this record for Oc1cccc2[nH]nnc12 [4-Hydroxybenzotriazole] : 123.13

// COC(=O)Nc1nc2ccc(C(=O)c3ccccc3)cc2[nH]1 [Mebendazole] : collision cross section value = 175.29

So, COc1ccc2c(c1)c(CC(=O)O)c(C)n2C(=O)c1ccc(Cl)cc1 [Indomethacin] ? Its collision cross section was 182.58

Lab note: CC1COC(Cn2cncn2)(c2ccc(Oc3ccc(Cl)cc3)cc2Cl)O1 (stereo not given) [Difenoconazole] gave collision cross section of 202.11

For reference, reported collision cross section for O=C(O)Cc1ccccc1Nc1c(Cl)cccc1Cl [Diclofenac] stands at 159.21

get_value(item= c1ccc(/N=N/c2ccccc2)cc1 [Azobenzene] , readout=collision cross section) returns 138.4

# collision cross section (compound: Cn1c(N)nc2c3cccnc3ccc21 [2-Amino-3-methyl-imidazo[4,5-f]quinoline (IQ)] ) is 138.89

Recorded result, CC1CCc2cc(F)cc3c(=O)c(C(=O)O)cn1c23 (stereo not given) [Flumequine] , collision cross section: 152.91

Notebook: CCCCCCCCCCN(C)C [N,N-Dimethyldecylamine] , collision cross section read as 158.65

Sure, the documented collision cross section for CC(C)CC(C)(O)C#CC(C)(O)CC(C)C (stereo not given) [TMDD] is 168.69

Reported collision cross section ( CN(C1CCCCC1)C1CCCCC1 [N-Methyl-dicyclohexylamine] ) = 148.45

collision cross section in this record for CC(Cc1ccc(C(C)(C)C)cc1)CN1CCCCC1 (stereo not given) [Fenpropidin] : 166.93

Please fill in: collision cross section reported for c1ccc2sc(NC3CCCCC3)nc2c1 [N-Cyclohexyl-2-benzothiazole-amine] = 155.21

Field collision cross section (entry Cc1cccc(C)c1N [2,6-Xylidine] ) reads 117.81

Reported collision cross section for CCCN(CCC)C(=O)SCc1ccccc1 [Prosulfocarb] was 158.12

The measured collision cross section associated with C=CCOC(Cn1ccnc1)c1ccc(Cl)cc1Cl (stereo not given) [Imazalil] reads 167.87

Record summary for CCC1=C(C)CN(C(=O)NCCc2ccc(S(=O)(=O)NC(=O)NC3CCC(C)CC3)cc2)C1=O (stereo not given) [Glimepiride] : reported collision cross section = 216.66

Form field collision cross section, entry CCC[C@H]1CCCCN1 [Coniine] : 129.06
